Taken from PubChem BioAssay (NCI).

Could you please report measured GI50 for the items listed next?
# Test system: RXF 393 renal
# measurement-protocol: NCI tumour cell line growth inhibition, 48 h

| smiles-string | test-system | value |
| --- | --- | --- |
| N#C/C(=C/N1CCN(C(=O)c2ccco2)C1=S)C(=O)c1ccccc1 | RXF 393 renal | 4.09 µM |

Give measured GI50 for every item shown.
1. Cc1cn2c(/C=C3\C(=O)N(C)c4ccc(O)cc43)c(C)nc2s1
2. C[C@@]12CCCc3coc(c31)C(=O)c1cc3c(cc12)C(=O)C=CC3=O

["36 µM", "> 1 µM"]

* * *

# System: HT29 colon
# measurement-protocol: NCI tumour cell line growth inhibition, 48 h; in the data active = GI50 below about 0.43 µM; inactive = the rest
The categories you may choose from are 1 for active, -1 for inactive

Example results:
| molecule | class-label |
| --- | --- |
| COc1ccc2c(c1)C(C)Cc1c(ncnc1-n1c(C)nc3ccccc31)N2C (stereo not drawn) | -1 |
| COc1cc2c(c(OC)n1)[C@]1(O)[C@H](O)[C@H](CN(C)C)[C@@H](c3ccccc3)[C@]1(c1ccc(C#N)cc1)O2 | 1 |
| O=C(Nc1ccc(-c2ccccc2)cc1)C1CCN(S(=O)(=O)c2ccccc2Cl)CC1 | -1 |

Hi, do you know how "Oc1cn(-c2ccc(Cl)cc2)nc1-c1n[nH]c(=S)n1C1CCCCC1" came out in this test? -1

Hi, do you know how "COc1ccc2ncn(-c3cc(O[C@H](C)c4ccccc4Cl)c(C(N)=O)s3)c2c1" came out in this test? 1

Hi, do you know how "C[C@@]12CCCc3coc(c31)C(=O)c1cc3c(cc12)C(=O)C=CC3=O" came out in this test? -1
